System: GFP-14-3-3β and its binding proteins
Procedure Summary: GFP-14-3-3β co-IP with LC-MS/MS label-free quantification, untreated versus PP1c-treated
Design: species or system human
Protocol Conditions: GFP-14-3-3β co-IP LC-MS/MS; PP1 vs untreated; student's t-test; label-free quantification, 3 replicates each
Protocol: HeLa Kyoto cells expressing transiently transfected pEGFP(C1)-14-3-3β or pEGFP(C1) control plasmid, were incubated with 20 nM Calyculin A (# 9902 S, Cell Signaling Technology) for 12 min. […] The samples were analyzed by LC-MS/MS on a Dionex Ultimate 3000 nano-HPLC coupled online to a Fusion Lumos Tribrid mass spectrometer (Thermo Fisher Scientific). […]
Measured Property: Difference (log2), PP1 vs untreated

[[record]]
molecule = "BRIX1 (protein, UniProt Q8TDN6 1-353, looked up) Ribosome biogenesis protein …: MAATKRKRRGGFAVQAKKPKRNEIDAEPPAKRHATAEEVEEEERDRIPGPVCKGKWKNKERILIFSSRGINFRTRHLMQDLRMLMPHSKADTKMDRKDKLFVINEVCEMKNCNKCIYFEAKKKQDLYMWLSNSPHGPSAKFLVQNIHTLAELKMTGNCLKGSRPLLSFDPAFDELPHYALLKELLIQIFSTPRYHPKSQPFVDHVFTFTILDNRIWFRNFQIIEEDAALVEIGPRFVLNLIKIFQGSFGGPTLYENPHYQSPNMHRRVIRSITAAKYREKQQVKDVQKLRKKEPKTLLPHDPTADVFVTPAEEKPIEIQWVKPEPKVDLKARKKRIYKRQRKMKQRMDSGKTK"
measured_result = -0.6423

[[record]]
molecule = "GNAS (protein, UniProt P63092 2-394, looked up) Guanine nucleotide-binding …: GCLGNSKTEDQRNEEKAQREANKKIEKQLQKDKQVYRATHRLLLLGAGESGKSTIVKQMRILHVNGFNGEGGEEDPQAARSNSDGEKATKVQDIKNNLKEAIETIVAAMSNLVPPVELANPENQFRVDYILSVMNVPDFDFPPEFYEHAKALWEDEGVRACYERSNEYQLIDCAQYFLDKIDVIKQADYVPSDQDLLRCRVLTSGIFETKFQVDKVNFHMFDVGGQRDERRKWIQCFNDVTAIIFVVASSSYNMVIREDNQTNRLQEALNLFKSIWNNRWLRTISVILFLNKQDLLAEKVLAGKSKIEDYFPEFARYTTPEDATPEPGEDPRVTRAKYFIRDEFLRISTASGDGRHYCYPHFTCAVDTENIRRVFNDCRDIIQRMHLRQYELL"
measured_result = -0.7154

